- tested_system: C-C chemokine receptor type 3 (Homo sapiens, UniProt P51677)
- Sequence (P51677 whole entry): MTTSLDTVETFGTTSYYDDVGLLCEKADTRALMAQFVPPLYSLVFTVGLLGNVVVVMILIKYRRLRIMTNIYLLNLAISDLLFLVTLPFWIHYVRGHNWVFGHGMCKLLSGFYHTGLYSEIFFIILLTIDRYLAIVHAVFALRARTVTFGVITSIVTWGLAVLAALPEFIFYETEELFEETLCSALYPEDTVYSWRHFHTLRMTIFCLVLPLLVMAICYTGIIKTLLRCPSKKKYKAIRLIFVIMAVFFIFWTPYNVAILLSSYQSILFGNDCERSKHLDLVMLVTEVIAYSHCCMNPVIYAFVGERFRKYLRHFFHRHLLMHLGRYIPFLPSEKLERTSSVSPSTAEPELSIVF
- protocol_text: In vitro binding activity against C-C chemokine receptor type 3 using [35S]GTP-gamma-S, as radioligand
measured_property: Ki (nM)

// below: answered compounds
1. O=C(NCC1CCCN(C2CCN(Cc3ccc(Cl)c(Cl)c3)CC2)C1)c1ccnc2ccccc12 (centres undefined)    80
2. O=C(NCC1CCCN(C2CCN(Cc3ccc(Cl)cc3)CC2)C1)c1ccc2ncccc2c1 (centres undefined)    95

I: O=C(NCC1CCCN(C2CCN(Cc3ccc(Cl)c(Cl)c3)CC2)C1)c1cnnc2ccccc12 (centres undefined)
II: O=C(NCC1CCCN(C2CCN(CCc3ccc(Cl)c(Cl)c3)CC2)C1)c1ccc2ncccc2c1 (centres undefined)
Pick one: I or II . Which one has the lower reported Ki? // caller expects the label of the chosen entry
I
(I: 99 nM, II: 180 nM)

---

- protocol_text: Inhibitory concentration against CREM 3 cell line using calcium flux assay at 37 C at 7.4 pH with compound dissolved in DMSO
- Type: functional, cell-based
- test_settings: CREM3
measured_property: pIC50
Conceptually, pIC50 converts a concentration in mol/L into minus its log10.

Name the recorded pIC50 for O=C(NCC1CCCN(C2CCN(Cc3ccc(Cl)c(Cl)c3)CC2)C1)c1ccc2ncccc2c1 (stereo unspecified) .
6.67
